# assay.comment: inhibition of 3D7 malaria parasite growth – strain 3D7 (AID 2306);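 further: 0% = DMSO wells and 100% = chloroquine plus artemisinin control wells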
# condition.summary: P. falciparum 3D7 erythrocytic growth, LDH absorbance, 72 h; at 2 µM; stronger effect = higher value
measured.metric: growth inhibition (%)

• CCCC(CNCc1cccc(SC(F)(F)F)c1)CNc1cc(=O)c2ccccc2[nH]1 (centres undefined) = 101
• CC(C)COc1ccc(Cl)cc1Cc1ccc(-c2nc3ccc(C(F)(F)F)cc3[nH]2)o1 = 97
• CN1CCC(C(=O)N(Cc2ccc(-c3ccc(CNCCc4ccc(S(C)(=O)=O)cc4)cn3)cc2)Cc2ccc3c(c2)OCO3)CC1 = 91
• COc1cc(F)c2ncc(C#N)c(CCN3CCC(NCc4ccc5c(c4)OCCO5)CC3)c2c1 = 97
• O=C(NCc1ccc(Cl)c(Cl)c1)c1cccc(C2CCCN(Cc3ccc4nc[nH]c4c3)C2)c1 (centres undefined) = 95
• COc1ccc(NC(=O)[C@H](CC(C)C)Nc2cc(C)nc(Nc3ccccc3)n2)cc1 = 101
• O=C(NCCCCN1CCC(c2ccc(-c3ccco3)cc2)CC1)c1ccc(NC(=O)c2ccc(Cl)cc2)cc1 = 100
• COc1ccc2nccc(NN=Cc3cccc([N+](=O)[O-])c3)c2c1 = 100
• CCNc1cc(C(=O)N[C@@H](Cc2ccccc2)[C@H](O)CN[C@H]2CCc3ccccc32)cc(N2CCCC2=O)c1 = 98

* * *

# assay.comment: human hepatoma cell viability loss – ATP luminescence, cytotoxicity control for P. falciparum antimalarial project, primary screen (AID 2303);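 further: 0% = DMSO wells and 100% = digitonin-killed cells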
# condition.summary: HepG2 viability, 24-48 h, at 10 µM, stronger effect = higher value
measured.metric: inhibition (%)

- COc1ccc(NC(=O)[C@H](Cc2ccccc2)Nc2cc(C)nc(NCCc3cccnc3)n2)cc1: 11
- CCc1ccccc1N1CCN(CCCCNC(=O)c2ccc(NC(=O)c3ccc(Cl)cc3)cc2)CC1: 21
- Nc1nc(N)c2c(ccc3nccc32)[nH]1: 58
- CCNc1cc(C(=O)N[C@@H](Cc2ccccc2)[C@H](O)CNC2C3CC4CC(C3)CC2C4)cc(N2CCCCS2(=O)=O)c1 (some centres undefined): -2
- O=C(Nc1ccc(Cl)cc1)Nc1cccc(-c2cccc(-c3nc4ccccc4[nH]3)c2)c1: 70
- COc1ccc2ncc(F)c(CCN3CC[C@@H](CNCc4nc5c(cc4C)SCC(=O)N5)C3)c2n1: 14
- O=C(Nc1cccc(-c2ccc(CN3CCCC3)cc2)c1)c1ccc(Cl)cc1: 29
- Cc1c(C(=O)[C@@H]2C[C@H]2CN2CCC(N3CCCC3)CC2)sc2ccccc12: 16
- O=C1NC(=S)NC1=CC=Cc1ccc([N+](=O)[O-])o1: 7

* * *

# assay.comment: human hepatoma cell viability loss – ATP luminescence, cytotoxicity control for P. falciparum antimalarial project, primary screen (AID 2303);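 further: 0% = DMSO wells and 100% = digitonin-killed cells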
# condition.summary: HepG2 viability, 24-48 h, at 10 µM
Activity calls are given as the source filed them.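 How the source made its calls: active means inhibition above 50%; inactive means the rest.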
Classes used: active, inactive

* O=C(Nc1cccc(-c2ccc(-c3nc4ccc(F)cc4[nH]3)cc2)c1)Nc1ccc(Cl)c(Cl)c1 | active
* O=C(NCCCCCN1CCC(c2c[nH]c3ccccc23)CC1)c1ccc(Cl)c(Cl)c1 | inactive
* N#Cc1ccc2c(c1)CCN(CCC1CCC(NC(=O)c3cccc(-c4ccc(F)cc4)c3)CC1)CC2 (stereo not given) | inactive
* Cc1nnc(N2C(=N)SC(=Cc3ccc(-c4ccc(OC(F)(F)F)cc4)o3)C2=O)s1 | inactive
* CCC(CC)n1c(C)cc2c3c(N)nc(N)nc3ccc21 | active
* O=C(NCCCNc1nc2ccccc2[nH]1)c1cccc(OC(F)(F)F)c1 | inactive
* CN(C)CCCOc1ccc(CCNCc2cccc(Oc3ccc(Cl)cc3)c2)cc1 | active
* FC(F)(F)c1ccc2nc(-c3ccc(-c4cccc(CNCCc5ccncc5)c4)s3)[nH]c2c1 | inactive
* CCOc1cc(-c2nnc3[nH]c(=O)n(C)c(=O)c3n2)ccc1OC(C)C | inactive
* O=C(CN1CCCC1)Nc1cccc(C(=O)Nc2cccc(C(F)(F)F)c2)c1 | inactive
* COc1cccc2c(NN=Cc3cccc([N+](=O)[O-])c3)ccnc12 | inactive
* Cn1c(Sc2ncnc3sccc23)nc2ccccc21 | inactive
* COc1ccc2nccc([C@@H](O)CN3CCC(NC(=O)/C=C/c4ccc(F)c5ccccc45)CC3)c2c1 | inactive
* CCCN(CCC)CCCNc1ccc(C(=O)Nc2ccc(OCC)cc2)cc1[N+](=O)[O-] | inactive
* Oc1cc(Nc2ccnc3cc(-c4cccc(CN5CCCCC5)c4)ccc23)c(F)cc1Cl | inactive
* CCCCCOc1ccc(C(O)C(CN2CCCCC2)c2ccccc2)cc1 (stereo not given) | inactive
* COc1ccc2c(c1)CCCC2C(C)NCC(O)c1cccc(C(F)(F)F)c1 (stereo not given) | inactive
* CCOC(=O)c1ccc(NC(=O)N[C@H]2CCN(CCCCCNC(=O)/C=C/c3ccc(Cl)c(Cl)c3)C2)cc1 | inactive
* CS(=O)(=O)Nc1ccc2[nH]cc(C3CCN(CC4CCC(NC(=O)/C=C/c5ccc(Cl)c(Cl)c5)CC4)CC3)c2n1 (stereo not given) | inactive
* CC1(C)N=C(N)N=C(N)N1OCc1nc(N)nc(Nc2ccccc2)n1 | inactive

src = PubChem BioAssay
